# target-of-assay: histamine H1 receptors (Cavia porcellus)
# Construct: incubation of guinea-pig cerebellum membranes; from tissue; host or cells: guinea-pig cerebellum membranes
# Sequence (P31389 whole entry): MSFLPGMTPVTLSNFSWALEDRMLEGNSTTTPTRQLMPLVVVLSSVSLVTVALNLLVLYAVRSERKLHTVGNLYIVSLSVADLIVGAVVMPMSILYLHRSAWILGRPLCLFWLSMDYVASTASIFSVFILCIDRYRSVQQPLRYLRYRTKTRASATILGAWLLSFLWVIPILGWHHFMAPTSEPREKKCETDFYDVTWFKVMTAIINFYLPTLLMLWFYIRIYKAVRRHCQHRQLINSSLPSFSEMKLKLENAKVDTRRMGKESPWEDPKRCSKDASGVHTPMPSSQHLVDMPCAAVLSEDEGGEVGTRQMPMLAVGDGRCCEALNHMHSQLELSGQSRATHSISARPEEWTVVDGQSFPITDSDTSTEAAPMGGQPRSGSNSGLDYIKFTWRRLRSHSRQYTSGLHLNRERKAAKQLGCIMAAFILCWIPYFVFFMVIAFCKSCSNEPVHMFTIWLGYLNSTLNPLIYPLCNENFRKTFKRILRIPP
# method: biochemical
# Type: binding, guinea-pig
# applied-conditions: [3H]-pyrilamine 1 nM, guinea-pig cerebellum, 25° C., 60 minutes; read-out: IC50, H1 receptors
result-type: pIC50
Note: pIC50 values are expressed as the negative base-10 logarithm of concentration in M.

Request: // returns reported pIC50 for input O=c1c(CO)coc2cc(OCCCN3CCC(c4noc5cc(F)ccc45)CC3)ccc12 [Ex. 2' (ES 9600323), reference compound]
Result: 8.92

----------
Catalogue of TD50 readings, one per entry.
# method: catalepsy test (cataleptic activity, oral route)
# applied-conditions: rat, in vivo
Kindly answer with a numeric value in mg/kg, unit omitted.

- compound: "O=c1c(CO)coc2cc(OCCCN3CCC(c4noc5cc(F)ccc45)CC3)ccc12 [Ex. 2' (ES 9600323), reference compound]"
  unit: "mg/kg"
  readout-value: 3.8

Next compound, TD50 to be filled in.
Request: // returns reported TD50 for input O=C(CCCN1CCC(O)(c2ccc(Cl)cc2)CC1)c1ccc(F)cc1 [Haloperidol, haloperidol, reference compound]
Result: 2

----------
# method: therapeutic index (catalepsy ED50 / climbing ID50)
# applied-conditions: in vivo, po
result-type: selectivity ratio
No unit in the answer, please; the number alone is enough.

Request: // returns reported selectivity ratio for input COCc1coc2cc(OCCCN3CCC(c4noc5cc(F)ccc45)CC3)ccc2c1=O.Cl [Example 3, hydrochloride]
Result: 32.3

----------
In what follows, each item is paired with its IC50 for UniProt:P14842.
Sequence (P14842 whole entry): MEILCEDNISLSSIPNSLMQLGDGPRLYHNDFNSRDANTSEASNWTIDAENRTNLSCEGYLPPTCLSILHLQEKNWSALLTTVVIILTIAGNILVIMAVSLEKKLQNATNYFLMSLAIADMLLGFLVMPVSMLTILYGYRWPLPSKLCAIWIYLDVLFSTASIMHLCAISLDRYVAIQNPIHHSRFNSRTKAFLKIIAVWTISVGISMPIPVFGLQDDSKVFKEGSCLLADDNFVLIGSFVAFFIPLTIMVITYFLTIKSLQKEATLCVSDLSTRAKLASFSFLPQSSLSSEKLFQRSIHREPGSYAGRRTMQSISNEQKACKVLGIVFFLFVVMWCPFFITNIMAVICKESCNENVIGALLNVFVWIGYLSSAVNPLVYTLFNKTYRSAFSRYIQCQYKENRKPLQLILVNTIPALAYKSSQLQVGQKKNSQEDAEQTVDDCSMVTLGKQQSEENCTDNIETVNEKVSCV
Kindly answer with a numeric value in nM, unit omitted.

- compound: "Cl.O=C(O)c1coc2cc(OCCCN3CCC(c4noc5cc(F)ccc45)CC3)ccc2c1=O [Example 2, hydrochloride]"
  result-type: "IC50"
  readout-value: 0.594
- compound: "O=c1c(CO)coc2cc(OCCCN3CCC(c4noc5cc(F)ccc45)CC3)ccc12 [Ex. 2' (ES 9600323), reference compound]"
  result-type: "IC50"
  readout-value: 3.08

Next compound, IC50 to be filled in.
Request: Test system UniProt:P14842; read-out IC50; what value for O=Cc1coc2cc(OCCCN3CCC(c4noc5cc(F)ccc45)CC3)ccc2c1=O ?
Result: 2.11
